Listing of entries alongside the reported pEC50.
Assay: H+/Na+ transport assay of purified peptides
Details: read-out: H+/Na+ transport activity EC50; EYPC/EYPG (19:1) LUVs
pEC50: −log10 of the molar value. Where a SMILES comes first, the peptide text is derived from it. [ ]: non-standard residue; d: D form. The star is where a group is joined. NHCH2CH2OH = OCCN*; For = O=C*
parameter.measured: pEC50

| compound | parameter.measured | quantitative.result |
| --- | --- | --- |
| CC(C)C[C@@H](NC(=O)[C@H](C)NC(=O)CNC(=O)[C@@H](NC=O)C(C)C)C(=O)N[C@@H](C)C(=O)N[C@@H](C(=O)N[C@H](C(=O)N[C@@H](C(=O)N[C@@H](Cc1c[nH]c2ccccc12)C(=O)N[C@H](CC(C)C)C(=O)N[C@@H](Cc1c[nH]c2ccccc12)C(=O)N[C@H](CC(C)C)C(=O)N[C@@H](Cc1c[nH]c2ccccc12)C(=O)N[C@H](CC(C)C)C(=O)N[C@@H](Cc1c[nH]c2ccccc12)C(=O)NCCO)[C@H](C)O)C(C)C)C(C)C [B13] (For-VGA[dL]A[dV]V[dT]W[dL]W[dL]W[dL]W-NHCH2CH2OH) | pEC50 | 8.80 |
| CC(C)C[C@@H](NC(=O)[C@H](C)NC(=O)CNC(=O)[C@@H](NC=O)C(C)C)C(=O)N[C@@H](C)C(=O)N[C@H](CC(C)C)C(=O)N[C@H](C(=O)N[C@H](CC(C)C)C(=O)N[C@@H](Cc1c[nH]c2ccccc12)C(=O)N[C@H](CC(C)C)C(=O)N[C@@H](Cc1c[nH]c2ccccc12)C(=O)N[C@@H](C(=O)N[C@@H](Cc1c[nH]c2ccccc12)C(=O)N[C@@H](C(=O)N[C@@H](Cc1c[nH]c2ccccc12)C(=O)NCCO)C(C)C)[C@H](C)O)C(C)C [B11] (For-VGA[dL]A[dL]V[dL]W[dL]W[dT]W[dV]W-NHCH2CH2OH) | pEC50 | 8.24 |
